Test system: SF-268 CNS
test: NCI tumour cell line growth inhibition, 48 h
measured.property: GI50

molecule: CN(C)N=Nc1nn(C(=O)Nc2ccc(Cc3ccccc3)cc2)c2ccccc12
recorded.value: 17.1 µM
--
molecule: Nc1cc(-c2ccccc2)n(C(=O)Nc2ccc(Oc3ccccc3)cc2)n1
recorded.value: 30.8 µM
--
molecule: C=C1C(=O)O[C@H]2[C@H]1CC/C(CNC(=O)/C=C/c1ccc(Cl)cc1Cl)=C\CC[C@@]1(C)O[C@@H]21
recorded.value: 1.09 µM
--
molecule: COc1ccc2c(c1OC)C(=O)O[C@@H]2[C@H]1c2c(c(Br)c3c(c2OC)OCO3)CCN1C
recorded.value: 18 µM
--
molecule: COc1cc2c(cc1OCCCCCn1c3ccccc3c3ccccc31)N=C[C@@H]1CCCN1C2=O
recorded.value: 1.91 µM
--
molecule: NCCSC(C[N+](=O)[O-])c1ccccc1Cl (stereo not given)
recorded.value: 2.79 µM
--
molecule: COc1cc2nc(N3CCC[C@@H](NC4=CC(=O)c5ccccc5C4=O)C3)nc(N)c2cc1OC
recorded.value: 1.92 µM
--
molecule: Cc1ccc(S(=O)(=O)Nc2cc(Sc3ccccc3)c(O)c3ccccc23)cc1
recorded.value: 2.57 µM
--
molecule: O=C1C=C(OCCCl)C(=O)c2c(O)ccc(O)c21
recorded.value: 3.98 µM
--
molecule: Nc1ccccc1C#C/C=C\C#Cc1ccccc1F
recorded.value: 4.23 µM

----------
System: IGROV1 ovarian
test: NCI tumour cell line growth inhibition, 48 h

molecule: O=C(NN1C(=O)CSC12CCC(c1ccccc1)CC2)c1[nH]c2ccc(F)cc2c1-c1ccccc1 (stereo not drawn)
tested.target: IGROV1 ovarian
GI50: 13 µM

molecule: Nc1ccccc1C#C/C=C\C#Cc1ccccc1F
tested.target: IGROV1 ovarian
GI50: 5.34 µM

molecule: CCN(CC)CCC(=O)O[C@H]1CC[C@H](CC(C)[C@H]2CC(=O)C(C)C=C(C)[C@H](OC(=O)CCN(CC)CC)C(OC)C(=O)[C@@H](C)CC(C)/C=C/C=C/C=C(C)C(OC)CC3CC[C@H](C)[C@](O)(O3)C(=O)C(=O)N3CCCCC3C(=O)O2)CC1OC (stereo partly drawn)
tested.target: IGROV1 ovarian
GI50: 0.00595 µM

molecule: CCCC(CCC)C(=O)OCC1(CO)C/C(=C\c2ccc(C(F)(F)F)cc2)C(=O)O1 (stereo not drawn)
tested.target: IGROV1 ovarian
GI50: 14.8 µM

molecule: O=C(Cn1c2ccccc2c2ccncc21)N/N=C\c1ccc2ccccc2c1
tested.target: IGROV1 ovarian
GI50: 13 µM

molecule: Cc1ccccc1NC(=O)c1cc2ccccc2cc1O
tested.target: IGROV1 ovarian
GI50: 2.65 µM

molecule: O=c1[nH]nc(-c2ccccc2)c2c(-c3ccccc3)onc12
tested.target: IGROV1 ovarian
GI50: 0.615 µM

molecule: C=C1C(=O)O[C@H]2[C@H]1CC/C(CNC(=O)/C=C/c1ccc(Cl)cc1Cl)=C\CC[C@@]1(C)O[C@@H]21
tested.target: IGROV1 ovarian
GI50: 1.63 µM

----------
System: SF-295 CNS
test: NCI tumour cell line growth inhibition, 48 h; in the data active means GI50 below about 0.43 µM; inactive means the rest
Labels: 1 for active, 0 for inactive

compound: CNC(=O)c1cncc(/C=C/c2c(Cl)cccc2Cl)c1
cat: 0

compound: O=[N+]([O-])c1cc2c(ccc3occc32)o1
cat: 0

compound: O=C1C=C(OCCCl)C(=O)c2c(O)ccc(O)c21
cat: 0

compound: CN(C)c1ncnc2c1ccn2C1OC(CO)C(O)C1O (stereo unspecified)
cat: 0

compound: CC1=NN(C(=O)c2nn(-c3ccc(Cl)cc3)cc2O)C(=O)C1
cat: 1

compound: COc1ccc2c(c1)C=C1CSCC3=Cc4cc(OC)ccc4OC13O2
cat: 1

compound: CCCC(CCC)C(=O)OCC1(CO)C/C(=C\c2ccc(C(F)(F)F)cc2)C(=O)O1 (stereo unspecified)
cat: 0

compound: O=C(NN1C(=O)CSC12CCC(c1ccccc1)CC2)c1[nH]c2ccc(F)cc2c1-c1ccccc1 (stereo unspecified)
cat: 0

compound: CCc1nc(N)nc(N)c1C#CC(C)c1cc(-c2ccnc(C)c2)c2oc(C)nc2c1 (stereo unspecified)
cat: 1

compound: NCCSC(C[N+](=O)[O-])c1ccccc1Cl (stereo unspecified)
cat: 0

compound: Cc1ccc(-c2c3c(N)c4c(nc3nc3c2c(C)nn3-c2ccccc2)CCC4)cc1
cat: 0

----------
Tested on: HS 578T breast
test: NCI tumour cell line growth inhibition, 48 h
TGI listing for selected molecules.

molecule: CCCC(CCC)C(=O)OCC1(CO)C/C(=C\c2ccc(C(F)(F)F)cc2)C(=O)O1 (stereo unspecified)
TGI: 30 µM
--
molecule: Cc1ncc(CO)c(C=NCCCCCCN=Cc2c(CO)cnc(C)c2O)c1O
TGI: > 100 µM
--
molecule: C=C(C)C(=O)O[C@H]1CC2=CC(CC(C)=C[C@H]3OC(=O)C(=C)C13)OC2=O (stereo partly specified)
TGI: > 100 µM
--
molecule: Cn1c(=O)sc2cc(C(=S)N3CCN(c4ccccc4)CC3)ccc21
TGI: > 100 µM
--
molecule: Cc1cc(C(O)CNC(C)CCn2cnc3c2c(=O)n(C)c(=O)n3C)ccc1O (stereo unspecified)
TGI: > 100 µM
--
molecule: CC(=O)NC1C(OCc2ccccc2)OC(CO)C(O)C1OCC(=O)N1CCCC1C(=O)NC(CCC(=O)NCCCCCNc1c2ccccc2nc2cccc([N+](=O)[O-])c12)C(N)=O (stereo unspecified)
TGI: 0.19 µM
--
molecule: CC1=NN(C(=O)c2nn(-c3ccc(Cl)cc3)cc2O)C(=O)C1
TGI: > 100 µM
--
molecule: c1ccc(CSC(SCc2ccccc2)c2ccc3c(c2)OCO3)cc1
TGI: > 10 µM
--
molecule: CC1=NN(c2ccccc2)C(=O)C1N=Nc1ccc(S(N)(=O)=O)cc1 (stereo unspecified)
TGI: > 100 µM
--
molecule: COC(=O)C1(C)OC(C)=NC1(C(=O)OC)C(=O)OC (stereo unspecified)
TGI: > 100 µM
--
molecule: COc1ccc(CN=C(N)N=C(N)N)cc1OC
TGI: > 1000 µM
--
molecule: BrC1=CN2C[n+]3cc(Br)c4ccccc4c3N=C2c2ccccc21
TGI: 61 µM
--
molecule: CCCc1cc(-c2ccc(-c3cc(CCC)c(C=O)[nH]3)s2)[nH]c1C=O
TGI: > 100 µM
--
molecule: O=C1/C(=C/c2ccc(Cl)cc2)Sc2scc(-c3cccc([N+](=O)[O-])c3)[n+]21
TGI: 43.6 µM
--
molecule: Cc1[nH]c2ccccc2c1C1=CC(=O)N(c2ccccc2)C1=O
TGI: 43.5 µM
--
molecule: O=c1c(Sc2ncccn2)c(Sc2ncccn2)cnn1CCl
TGI: 37 µM
--
molecule: Oc1ccccc1-n1nc2ccc3nonc3c2n1
TGI: > 100 µM
--
molecule: Cc1cc(Cl)ccc1Nc1nc(C(F)(F)F)ccc1C(=O)Nc1cccc(C(F)(F)F)c1
TGI: 20.2 µM
--
molecule: C=C(CC)C[C@@H]1C[C@]2(C(=O)OC)c3[nH]c4ccccc4c3CCN2C1=O
TGI: 41.1 µM
--
molecule: C=CCC1C2CCC(O[Si](C(C)C)(C(C)C)C(C)C)(C(C(=O)OC)C2)C1O (stereo unspecified)
TGI: > 100 µM
--
molecule: Cc1cn(Cc2ccccc2CCl)c(=O)n(Cc2ccccc2CCl)c1=O
TGI: 15.1 µM

----------
Test system: HT29 colon
test: NCI tumour cell line growth inhibition, 48 h
measured.property: log10 TGI (log10 of the value in µM)

compound: COc1ccc(/C=N\O[Si](C)(C)C(C)(C)C)cc1O[Si](C)(C)C(C)(C)C
log10 TGI: 1.56

compound: CN(C)C(=O)Oc1ccc(C(=S)Nc2ccccc2)cc1Br
log10 TGI: 1.81

compound: CCOC(=O)Oc1ccc2c(c1)c(=O)c1c(NCCCN(CC)CC)ccc3nnn2c31
log10 TGI: 1.20

compound: COc1ccc(/C(C#N)=C(/N)SCc2ccccc2Cl)cc1
log10 TGI: 1.52

compound: Cc1ccc(-c2c3c(N)c4c(nc3nc3c2c(C)nn3-c2ccccc2)CCC4)cc1
log10 TGI: 1.04

compound: NCCSC(C[N+](=O)[O-])c1ccccc1Cl (stereo unspecified)
log10 TGI: 1.04

compound: Cc1cn2c(/C=C3/C(=O)Nc4ccccc43)c(C)nc2s1
log10 TGI: 1.19

compound: O=c1c(Sc2ncccn2)c(Sc2ncccn2)cnn1CCl
log10 TGI: 0.67

compound: CN(CCCN(C)CCC1CCCCC1)CCC1CCCCC1
log10 TGI: 0.37

compound: COc1cc(NC(=O)c2cc(O)c(C/C=C(\C)CCC=C(C)C)c(O)c2)cc2c1O[C@]1(C)CC[C@@H](O)C(C)(C)[C@H]1C2
log10 TGI: 0.76

----------
System: SF-295 CNS
test: NCI tumour cell line growth inhibition, 48 h
Below: a set of entries, each annotated with reported log10(TGI).
measured.property: log10(TGI) (log10 of the value in µM)

molecule: O=c1oc2c(ccc3c(O)cccc32)c2c1CCCC2
tested.target: SF-295 CNS
log10(TGI): 1.76
--
molecule: CC1=C(C)C(=O)C(C2=C(C3=CC(=O)C(C)=C(C)C3=O)C(=O)c3ccccc3C2=O)=CC1=O
tested.target: SF-295 CNS
log10(TGI): 1.45
--
molecule: N#CCN(Cc1ccccc1)[C@@H]1CCC[C@]1(O)C#Cc1ccc2c(c1)OCO2
tested.target: SF-295 CNS
log10(TGI): 1.62
--
molecule: Nc1ccccc1C#C/C=C\C#Cc1ccccc1F
tested.target: SF-295 CNS
log10(TGI): 1.22
--
molecule: O=CN1N=C(c2ccc(Nc3ccnc4cc(Cl)ccc34)cc2)CC1c1ccc(Cl)cc1 (stereo not given)
tested.target: SF-295 CNS
log10(TGI): 0.03

The origin of these recorded values is PubChem BioAssay (NCI).
